meta.source: patent US20230051268A1

experiment: Single-dose pharmacokinetic study of lemborexant and metabolites M4, M9, M10 in subjects with mild or moderate hepatic impairment and healthy controls (plasma, LC-MS/MS); assay type: in vivo, human; settings: human, plasma, po, 10 mg, lemborexant 10 mg single oral dose; normal hepatic function (n = 8); geometric mean (% CV)
parameter: half-life (h)
Answer in h, number only, no unit symbol.

Input line: Returns the measured half-life for the input compound. Input: Cc1ncc(OC[C@@]2(c3cccc(F)c3)C[C@H]2C(=O)Nc2ccc(F)cn2)c(C)n1 [lemborexant]
Output line: 67

====

assay: Single-dose pharmacokinetic study of lemborexant and metabolites M4, M9, M10 in subjects with mild or moderate hepatic impairment and healthy controls (plasma, LC-MS/MS); format: in vivo, human; conditions: human, plasma, po, 10 mg, lemborexant 10 mg single oral dose; normal hepatic function (n = 8); geometric mean (% CV); read-out: Vz/F
parameter: Vd/F (L)
Answer in L, number only, no unit symbol.

Input line: Returns the measured Vd/F for the input molecule. Input: Cc1ncc(OC[C@@]2(c3cccc(F)c3)C[C@H]2C(=O)Nc2ccc(F)cn2)c(C)n1
Output line: 2130

====

assay: Single-dose pharmacokinetic study of lemborexant and metabolites M4, M9, M10 in subjects with mild or moderate hepatic impairment and healthy controls (plasma, LC-MS/MS); format: in vivo, human; conditions: human, plasma, oral, 10 mg, normal, mild and moderate cohorts; 10 mg tablet; read-out: median tmax across cohorts
parameter: Tmax

Input line: Returns the measured Tmax for the input compound. Input: Cc1ncc(OC[C@@]2(c3cccc(F)c3)C[C@H]2C(=O)Nc2ccc(F)cn2)c(C)n1
Output line: 1 to 1.25 h

====

test: Single-dose pharmacokinetic study of lemborexant and metabolites M4, M9, M10 in subjects with mild or moderate hepatic impairment and healthy controls (plasma, LC-MS/MS); assay type: in vivo, human; conditions: human, plasma, po, 10 mg, lemborexant 10 mg single oral dose; mild hepatic impairment (lemborexant n = 7); geometric mean (% CV)
parameter: half-life (h)
Answer in h, number only, no unit symbol.

Input line: Returns the measured half-life for the input molecule. Input: Cc1ncc(OC[C@@]2(c3cccc(F)c3)C[C@H]2C(=O)Nc2ccc(F)cn2)c(C)n1
Output line: 73.7

====

Experiment: Single-dose pharmacokinetic study of lemborexant and metabolites M4, M9, M10 in subjects with mild or moderate hepatic impairment and healthy controls (plasma, LC-MS/MS)
Type: in vivo, human
Details: human, plasma, po, 10 mg, lemborexant 10 mg single oral dose; mild hepatic impairment (n = 8); median (range); read-out: tmax
Experimental: A multicenter, single-dose, open-label, parallel-group study in subjects with mild or moderate hepatic impairment and matched (with regard to age [±10 years], sex, and body mass index [BMI, ±20%]) healthy subjects as controls was performed. […] Total mean plasma concentrations of lemborexant and lemborexant metabolites (M4, M9, and M10) were measured by validated liquid chromatography with tandem mass spectrometry (LC-MS/MS). […]
parameter: Tmax (h)
Answer in h, number only, no unit symbol.

Input line: Returns the measured Tmax for the input molecule. Input: Cc1ncc(OC[C@@]2(c3cccc(F)c3)C[C@H]2C(=O)Nc2ccc(F)cn2)c(C)n1
Output line: 1

====

assay: Single-dose pharmacokinetic study of lemborexant and metabolites M4, M9, M10 in subjects with mild or moderate hepatic impairment and healthy controls (plasma, LC-MS/MS); format: in vivo, human; conditions: human, plasma, po, 10 mg, lemborexant 10 mg single oral dose; mild hepatic impairment (n = 8); geometric mean (% CV); read-out: AUC(0-t)
parameter: AUC(0-t) (ng·h/mL)
Answer in ng·h/mL, number only, no unit symbol.

Input line: Returns the measured AUC(0-t) for the input molecule. Input: Cc1ncc(OC[C@@]2(c3cccc(F)c3)C[C@H]2C(=O)Nc2ccc(F)cn2)c(C)n1 [lemborexant]
Output line: 574
